Target: ADAM33 (Homo sapiens, UniProt Q9BZ11)
Sequence (Q9BZ11 204-409 limits assumed): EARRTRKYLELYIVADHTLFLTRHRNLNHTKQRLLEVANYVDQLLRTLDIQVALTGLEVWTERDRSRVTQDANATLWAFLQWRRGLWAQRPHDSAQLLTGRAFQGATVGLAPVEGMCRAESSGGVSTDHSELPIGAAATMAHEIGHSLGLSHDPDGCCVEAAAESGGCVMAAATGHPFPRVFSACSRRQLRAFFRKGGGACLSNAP
ASSAY_ENDPOINT: Ki (nM)

(a) CNC(=O)[C@@H](NC(=O)[C@H](CC(C)C)[C@H](O)C(=O)NO)C(C)(C)C [Marimastat]
(b) CC(C)CC(CC(=O)NO)C(=O)N[C@H](C(=O)N[C@@H](C)C(=O)NCCN)C(C)(C)C (mixture of isomers) [Immunex compound 1]
### Prompt Field: entry with larger Ki (options a / b ). Give the label of your selection.
### Response b
(b: 2850 nM, a: 157 nM)
